Assay: Solubility in organic solvents
Format: physicochemical
Details: organic solvent or mixture, thermodynamic from solid; DMSO; Table 4.3; read-out: Solubility in DMSO
endpoint: solubility (mM)

Please review the following examples before continuing.
Field request: solubility | item: "Cc1cc(=O)[nH]c2c1C(=O)c1c(C)cc(=O)n(C(C)C)c1C2=O"
21

Field request: solubility | item: "Cc1cc(=O)[nH]c2c1C(=O)c1c(C)cc(=O)n(C3CCCCCCC3)c1C2=O"
71

A: Cc1cc(=O)[nH]c2c1C(=O)c1c(C)cc(=O)n(CC3CC3)c1C2=O
B: CCCCCCCn1c2c(c(C)cc1=O)C(=O)c1c(C)cc(=O)[nH]c1C2=O
Of A and B , whose reported solubility is numerically smaller? Bench note: the answer is the label of the chosen record.
B
(B: 13 mM, A: 25 mM)
